system: hepatocytes; assay: RNA-seq of hepatocytes treated with Phase III failure compounds; details: gene C15orf41; hepatocytes
Where a name gives a salt, the structure may show the parent alone.
Reported endpoint: C15orf41 expression, RNA-seq result

Example entries begin here.
Cn1c(COP(=O)(NCCBr)NCCBr)cnc1[N+](=O)[O-] [TH-302 (Evofosfamide), Evofosfamide]: 0.08
COCCOc1ccc(N2CCN(CCn3ncc4c3nc(N)n3nc(-c5ccco5)nc43)CC2)cc1: −0.17
O=C(N[C@H]1CN2CCC1CC2)c1cc2cccc(Cl)c2s1 [EVP-6124 (hydrochloride) (encenicline), encenicline]: −0.2

Read the next record carefully.
Q) Given COc1nc(N)nc2c1ncn2[C@@H]1O[C@H](COP(=O)(N[C@@H](C)C(=O)OCC(C)(C)C)Oc2cccc3ccccc23)[C@@H](O)[C@@]1(C)O (stereo partly shown) , state its recorded C15orf41 expression, RNA-seq result.
A) −1.68
